The values you see were collected from ChEMBL document CHEMBL1140054.

- test details: Chondroprotective activity in bovine articular cartilage explant cultures assessed as reduction in IL1-induced glycosaminoglycan release at 0.1 mM after 96 hrs
- Type: functional, Bos taurus
# binarize fold change (FC): threshold 4 inclusive, high side 1.0, low side 0.0

Solved entries:
compound	class
COc1ccc(OP(=O)(NCC(=O)OCc2ccccc2)OC[C@H]2OC(O)[C@H](NC(C)=O)[C@@H](O)[C@@H]2O)cc1 (stereo partly specified)	1.0
N[C@H]1C(O)O[C@H](CO)[C@@H](O)[C@@H]1O (stereo partly specified)	1.0
COc1ccc(OP(=O)(N[C@H](C(=O)OC(C)C)C(C)C)OC[C@H]2OC(O)[C@H](NC(C)=O)[C@@H](O)[C@@H]2O)cc1 (stereo partly specified)	0.0
CCOC(=O)[C@H](C)NP(=O)(OC[C@H]1OC(O)[C@H](NC(C)=O)[C@@H](O)[C@@H]1O)Oc1ccc(OC)cc1 (stereo partly specified)	1.0
CCOC(=O)CN(C)P(=O)(OC[C@H]1OC(O)[C@H](NC(C)=O)[C@@H](O)[C@@H]1O)Oc1ccc(OC)cc1 (stereo partly specified)	1.0
CCOC(=O)CNP(=O)(OC[C@H]1OC(O)[C@H](NC(C)=O)[C@@H](O)[C@@H]1O)Oc1ccc(OC)cc1 (stereo partly specified)	0.0
COc1ccc(OP(=O)(N[C@@H](C)C(=O)OCc2ccccc2)OC[C@H]2OC(O)[C@H](NC(C)=O)[C@@H](O)[C@@H]2O)cc1 (stereo partly specified)	1.0

Pending compound:
Challenge: Decide: fold change (FC) of COc1ccc(OP(=O)(N[C@H](C(=O)OC2CCCCC2)C(C)C)OC[C@H]2OC(O)[C@H](NC(C)=O)[C@@H](O)[C@@H]2O)cc1 (stereo partly specified) >= 4?
Response given: 1.0
